# Test system: Salmonella typhimurium
# Experiment notes: Antimutagenic activity against Salmonella typhimurium TA1535 assessed as inhibition of NaN3-induced mutation at 100 ug/plate preincubated for 30 mins followed by top agar addition and measured after 48 hrs in presence of liver S9 fraction by Ames test relative to control
# Assay type: organism-based
# Test parameters: salmonella enterica subsp. enterica serovar typhimurium, s9, 48 h
Each entry below carries its reported inhibition (INH).
Enter the number, and then the unit.

Worked set:
Compound	inhibition (INH)
CCC(O)CNC(=O)COc1c(C)cccc1C (centres undefined)	51%
CC[C@@H](CO)NC(=O)COc1c(C)cccc1C	22%
Cc1cccc(C)c1OCC(=O)NCC(O)c1ccccc1 (centres undefined)	45%

We now examine a further compound.
The reported value for `Cc1cccc(C)c1OCC(=O)N[C@H](C)CO` in terms of inhibition (INH) is 43%
